Measured Oat, Wild plant response rating by item
- Test system: oat, wild (wild oat, Avena fatua)
- protocol description: Test C postemergence, wild oat
- Assay type: in vivo
- condition notes: 125 g ai/ha Postemergence; visual injury, 0 to 100 scale (0 no effect, 100 complete control)
In your answer, state the number alone without any accompanying words.

Request: Reported Oat, Wild plant response rating for Cc1cc(C)c(N2CCC(OCC3CCC3)C2=O)cc1NS(=O)(=O)C(F)(F)F (stereo not drawn) : what is it?
Response: 20

Request: Reported Oat, Wild plant response rating for Cc1c(NS(=O)(=O)C(F)(F)F)cc(N2CCC(OC3CCC3)C2=O)c(C)c1C (stereo not drawn) : what is it?
Response: 30

Request: Reported Oat, Wild plant response rating for Cc1cc(C)c(N2CCC(OCC3CCCO3)C2=O)cc1NS(=O)(=O)C(F)(F)F (stereo not drawn) : what is it?
Response: 40

Request: Reported Oat, Wild plant response rating for Cc1cc(C)c(N(COC(=O)C(C)(C)C)S(=O)(=O)C(F)(F)F)cc1N1CCC(OCC2CCC2)C1=O (stereo not drawn) : what is it?
Response: 10

Request: Reported Oat, Wild plant response rating for Cc1c(N2CCC(OC3CC3)C2=O)cc(N(COC(=O)C(C)(C)C)S(=O)(=O)C(F)(F)F)c(C)c1C (stereo not drawn) : what is it?
Response: 70

Request: Reported Oat, Wild plant response rating for CC#CCOC1CCN(c2cc(NS(=O)(=O)C(F)(F)F)c(C)cc2C)C1=O (stereo not drawn) : what is it?
Response: 90
